Data origin: PubChem BioAssay (NCI)

Test system: NCI-H460 lung
Experiment: NCI tumour cell line growth inhibition, 48 h
Quick reference for TGI among some compounds

Answered examples (2):
CSC(=NCCCN=C(NS(=O)(=O)c1ccc(Cl)cc1)SC)NS(=O)(=O)c1ccc(Cl)cc1: > 100 µM
NC(=O)NC(=O)C1CCC(=O)N1S(=O)(=O)c1ccc(Cl)cc1 (stereo not drawn): > 100 µM

Prompt: Give the measured TGI for "Cc1cccc(Cc2cnc(NC(=O)CCCOc3ccc(Cl)cc3)s2)c1"
Response: > 100 µM

* * *

System: MALME-3M melanoma
Assay: NCI tumour cell line growth inhibition, 48 h
Measured quantity: log10 TGI (log10 of the value in µM)
Short version: log10 scale, TGI, µM.

Check out these entries, answers already filled in.
O=C(Nc1ccccc1)Oc1ccccc1C1CCCCC1: 1.76
Oc1ccc(CCNc2nc3ccccc3c3[nH]c4ccccc4c23)cc1: 0.54
O=C1C(=O)c2c(ccc3ccccc23)-c2ccccc21: 0.54

Prompt: For the molecule "NNC(=O)COc1nc(-c2cccs2)nc2ccc(I)cc12" , give its reported log10 TGI.
Response: 1.65

Prompt: // fetch log10 TGI given entry "CSC(=NCCCN=C(NS(=O)(=O)c1ccc(Cl)cc1)SC)NS(=O)(=O)c1ccc(Cl)cc1"
Response: 1.86

Prompt: Please look at this molecule and report its log10 TGI: "Brc1ccc2c(c1)-c1ccccc1C1=NCCN12"
Response: 0.47

Prompt: Tell me measured log10 TGI for O=C(c1ccccc1)c1ccc(N2C(=O)C3C4c5ccccc5C(/C=C/C(=O)c5ccccn5)(c5ccccc54)C3C2=O)cc1 (centres undefined) please.
Response: 0.81

Prompt: # return recorded log10 TGI for entry O=P1(C(O)c2ccccc2)N(Cc2ccccc2)[C@@H]2CCCC[C@H]2N1Cc1ccccc1 (some centres undefined)
Response: 1.86

* * *

Tested on: HL-60(TB) leukemia
Experiment: NCI tumour cell line growth inhibition, 48 h
Measured quantity: TGI

CCCCN1/C(=N/Nc2n[nH]c(=O)c3ccccc23)SCC1c1ccc(Cl)cc1 (centres undefined): > 100 µM
Nc1c(/C=C/c2cc3cc(C4=NCCN4)ccc3o2)[nH]c2cc(C3=NCCN3)ccc12: > 100 µM
Nc1nc(Nc2cc(F)c(Cl)c(F)c2)cc(=O)[nH]1: > 100 µM

Here is another molecule to look at.
Prompt: Let me know recorded TGI for "OCCn1c(-c2ccncc2)c(-c2ccc(F)cc2)c2ncccc21" , thanks.
Response: > 25 µM

* * *

Tested on: NCI-H522 lung
Assay: NCI tumour cell line growth inhibition, 48 h
Measured quantity: TGI

Answered cases to consult:
COC(=O)C1CCC(=S)N1C(C)=O (stereo not given): > 100 µM
Cc1cc2c(SCc3ccccc3Cl)nc(N)nc2nc1C: > 100 µM
Clc1ccc(N=CNc2ccc(-c3nc4ccccc4[nH]3)cc2)cc1: > 100 µM
CC(=O)OC/C=C/Cn1nc(Br)c(=O)[nH]c1=O: > 100 µM
O=C1NC2(CCCCC2)C2=C1CCCCC2: > 100 µM
NC(=O)NC(=O)C1CCC(=O)N1S(=O)(=O)c1ccc(Cl)cc1 (stereo not given): > 100 µM

Prompt: State its TGI for this compound: "CC(=O)Oc1c(OC(C)C)cc(=O)n2ccsc12"
Response: > 100 µM

Prompt: Supply TGI value. Item: Clc1cc2ncn(C3CCCO3)c2cc1Cl (stereo not given)
Response: > 100 µM

Prompt: Using known records, supply TGI for "C/C(=N\NC(=O)c1ccncc1)c1ccccc1O"
Response: > 100 µM

* * *

Test system: SF-295 CNS
Assay: NCI tumour cell line growth inhibition, 48 h; in the data active = GI50 below about 0.43 µM; inactive = the rest
In this exercise, the only acceptable responses are active, inactive

O=C(COC(=O)[C@H](C[Se][Se]C[C@H](NC(=O)c1ccc(Br)cc1F)C(=O)OCC(=O)c1ccc(F)cc1)NC(=O)c1ccc(Br)cc1F)c1ccc(F)cc1: active
Cn1c(=O)c(-c2c(Cl)cccc2Cl)cc2cnc(Nc3ccc(N4CCOCC4)cc3)nc21: active
CC(C)=NO.CC(C)=NO.CC(C)=NO.CC(C)=NO.[Ti]: inactive

Prompt: How was "O=C(Nc1cccc(C(F)(F)F)c1)Nc1ccc(OCc2nnc(-c3ccccc3)o2)c(F)c1" classified in this test?
Response: inactive

* * *

Tested on: MCF7 breast
Test: NCI tumour cell line growth inhibition, 48 h
Measured quantity: TGI

Cc1cccc(Cc2cnc(NC(=O)CCCOc3ccc(Cl)cc3)s2)c1: > 100 µM

Prompt: Provide only the value of recorded TGI for CC1SCCc2nc3ccccc3n21 (stereo unspecified)
Response: > 100 µM

* * *

Measured GI50 by item
System: HL-60(TB) leukemia
Assay: NCI tumour cell line growth inhibition, 48 h

See these solved cases before continuing.
O=C(Nc1cccc(C(F)(F)F)c1)Nc1cc(S(=O)(=O)NC2CC2)ccc1-c1ccsc1: 3010 nM
Oc1ccc(CCNc2nc3ccccc3c3[nH]c4ccccc4c23)cc1: 2400 nM
CCC(=C(c1ccc(OCCN(CC)CC)cc1)c1ccc(OCCN(CC)CC)cc1)c1ccc(Cl)cc1: 626 nM

Prompt: Query GI50 for "COc1ccc(S(=O)(=O)NCCCNc2nccc(-c3c(-c4ccc(F)cc4)nc4sccn34)n2)cc1"
Response: 7510 nM

Prompt: Write down GI50 measured for item O=C(c1ccccc1)c1ccc(N2C(=O)C3C4c5ccccc5C(/C=C/C(=O)c5ccccn5)(c5ccccc54)C3C2=O)cc1 (stereo not given)
Response: 1900 nM

* * *

Tested on: SF-268 CNS
Experiment: NCI tumour cell line growth inhibition, 48 h
TGI overview

CCCCCCCCCCCCCCCC(=O)OCC(COP(=O)(O)OCCNC(=O)CCSSc1ccccn1)OC(=O)CCCCCCCCCCCCCCC (stereo not drawn): > 100 µM
O=[N+]([O-])c1cccc2c1[nH]c1c(-c3ccccc3)nccc12: > 100 µM

Prompt: State its TGI: COC(=O)N/N=C(\c1nc2ccc(Cl)cc2[nH]c1=O)C(O)c1ccc([N+](=O)[O-])cc1 (stereo not drawn)
Response: > 100 µM

* * *

System: SF-268 CNS
Test: NCI tumour cell line growth inhibition, 48 h
Measured quantity: TGI

Solved cases below.
Cn1c(=O)c(-c2c(Cl)cccc2Cl)cc2cnc(Nc3ccc(N4CCOCC4)cc3)nc21: > 27.9 µM
CC1=C2[C@@H](c3ccccc3)C3C=CC2(C=C3C(F)(F)F)N(C(=O)NC2CCCCC2)C1=O (some centres undefined): > 100 µM
CCOP(=O)(OCC)/C(C#N)=C(\C)c1ccco1: > 10 µM

Switching to the query record.
Prompt: Retrieve TGI measured for "CN1CCN(Cc2ccc(NC(=O)c3cncc(C#Cc4cnc5cccnn45)c3)cc2C(F)(F)F)CC1" and print it.
Response: 2.81 µM

* * *

Below is a list of entries, each paired with its recorded TGI value.
System: M14 melanoma
Experiment: NCI tumour cell line growth inhibition, 48 h

C/C(=N\NC(=O)c1ccncc1)c1ccccc1O: 89.1 µM
O=C(c1ccccc1)c1ccc(N2C(=O)C3C4c5ccccc5C(/C=C/C(=O)c5ccccn5)(c5ccccc54)C3C2=O)cc1 (centres undefined): > 100 µM
O=C1OC(c2ccccc2)=N/C1=C\c1ccc(N(CCCl)CCCl)cc1: > 100 µM

# evaluate next
Prompt: Supply reported TGI belonging to this compound: "CCc1n[nH]c(=O)n1-c1ccncc1"
Response: > 100 µM

* * *

System: OVCAR-3 ovarian
Test: NCI tumour cell line growth inhibition, 48 h
TGI values, listed per item

Illustrative cases are given below, each with its answer.
CSC(=NCCCN=C(NS(=O)(=O)c1ccc(Cl)cc1)SC)NS(=O)(=O)c1ccc(Cl)cc1: 80 µM
Cc1cc2c(=O)cc(-c3ccncc3)oc2c(C(=O)O)c1C: > 100 µM

Prompt: Look up and report measured TGI for this entry: "COc1cc(/C=C/C(=O)c2c(-c3ccc(Cl)cc3)nc3sc(C)nn23)cc(OC)c1OC"
Response: > 100 µM

Prompt: For the compound "CN1Cc2c(ccc3c2OCO3)[C@@H]2[C@H](O)Cc3cc4c(cc3[C@@H]21)OCO4" , give its measured TGI value.
Response: > 100 µM

Prompt: Tell me TGI reported for "COc1ccc(/[N+]([O-])=C/c2ccccc2OC(=S)S)cc1"
Response: > 100 µM

* * *

Overview of reported TGI across a group of compounds:
Tested on: UACC-62 melanoma
Experiment: NCI tumour cell line growth inhibition, 48 h

Below: 5 compounds and their reported TGI.
CNc1nc(OC)c2c(n1)[n+](C)cn2C: > 100 µM
O=C(CCc1ccccc1)NCCc1ccc(O)c(O)c1: > 100 µM
O=C1Cc2c([nH]c3c(Br)cccc23)-c2ccccc2N1: > 100 µM
FC(F)(Sc1nc2ccccc2[nH]1)c1nc2ccccc2o1: > 100 µM
CN(C)c1ccc(/C=C2\Cc3ccccc3C2=O)cc1Br: > 100 µM

Prompt: Read off the recorded TGI for NS(=O)(=O)C1CCCCC1C(=O)NNC(=O)C(=O)Nc1nc(=S)[nH][nH]1 (configuration not stated)
Response: > 100 µM

Prompt: Respond only with TGI recorded for "COc1cc(/C=C/C(=O)c2c(-c3ccc(Cl)cc3)nc3sc(C)nn23)cc(OC)c1OC"
Response: > 100 µM

Prompt: Identify TGI associated with the compound "O=C(NCc1ccc(Cl)c(Cl)c1)c1nc2ccccc2nc1NCc1ccc(Cl)c(Cl)c1"
Response: > 100 µM

Prompt: Specify measured TGI for "O=C1OC(c2ccccc2)=N/C1=C\c1ccc(N(CCCl)CCCl)cc1" .
Response: > 100 µM

Prompt: For the compound "CC(=O)CC(=O)N1CCOC1=O" , give its measured TGI value.
Response: > 10 µM

Prompt: Could you please provide reported TGI for "O=C(/C=C/c1ccc(OCC(=O)N2CCN(c3ccccc3)CC2)cc1)c1ccccc1" ? Thanks!
Response: > 59.7 µM

Prompt: Using the record for Clc1cc2ncn(C3CCCO3)c2cc1Cl (configuration not stated) , state its measured TGI.
Response: > 100 µM
